// data source = patent US10167257B2

TESTED ON: TDO (A172 cells) (Homo sapiens)
Construct: This assay utilised cancer cells which expressed either TDO or IDO; host or cells: A172 human glioblastoma cells
Sequence (P48775 whole entry): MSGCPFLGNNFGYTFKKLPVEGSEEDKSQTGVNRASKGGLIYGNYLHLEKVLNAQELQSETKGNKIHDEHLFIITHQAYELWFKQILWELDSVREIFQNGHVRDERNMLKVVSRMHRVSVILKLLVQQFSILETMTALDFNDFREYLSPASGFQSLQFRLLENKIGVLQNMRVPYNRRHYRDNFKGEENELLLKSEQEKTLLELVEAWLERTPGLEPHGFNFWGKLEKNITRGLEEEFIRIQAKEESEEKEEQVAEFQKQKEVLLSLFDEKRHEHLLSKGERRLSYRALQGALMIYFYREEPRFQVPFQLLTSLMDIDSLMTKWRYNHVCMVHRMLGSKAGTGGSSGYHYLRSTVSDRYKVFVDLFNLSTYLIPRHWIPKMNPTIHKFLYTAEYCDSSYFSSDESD
ASSAY REMARKS: TDO cell-based assay (A172), kynurenine production
RECORDED CONDITIONS: A172 human glioblastoma cells, 500 μM L-Trp, 48 h, kynurenine by absorbance at 490 nm

>  <COMPOUND>
O=C(NC1(c2ncccn2)CC1)c1cc2cc(Cl)ccc2[nH]1

>  <TDO cellular assay (A172) pIC50>
− (− = pIC50 <4.50)

$$$$
>  <COMPOUND>
Cn1cc(C2(NC(=O)c3cc4cc(Cl)ccc4[nH]3)CCCCC2)cn1

>  <TDO cellular assay (A172) pIC50>
− (− = pIC50 <4.50)

$$$$
>  <COMPOUND>
Cn1cc(C2(NC(=O)c3cc4ccc(O)cc4[nH]3)CC2)cn1

>  <TDO cellular assay (A172) pIC50>
− (− = pIC50 <4.50)

$$$$
>  <COMPOUND>
Cn1cc(C2(NC(=O)c3cc4cc(C#N)ccc4[nH]3)CC2)cn1

>  <TDO cellular assay (A172) pIC50>
− (− = pIC50 <4.50)

$$$$
>  <COMPOUND>
CCN(Cc1noc(CC(C)C)n1)C(=O)c1cc2cc(Cl)ccc2[nH]1

>  <TDO cellular assay (A172) pIC50>
+ (+ = pIC50 4.50-<5.00)

$$$$
>  <COMPOUND>
Cc1cc(C2(NC(=O)c3cc4cc(C#N)ccc4[nH]3)CC2)no1

>  <TDO cellular assay (A172) pIC50>
− (− = pIC50 <4.50)

$$$$
>  <COMPOUND>
CCc1ccc2[nH]c(C(=O)N[C@H](C)c3ccccc3)cc2c1

>  <TDO cellular assay (A172) pIC50>
− (− = pIC50 <4.50)

$$$$
>  <COMPOUND>
COc1ccc2cc(C(=O)NC3(c4ccccc4)COC3)[nH]c2c1

>  <TDO cellular assay (A172) pIC50>
− (− = pIC50 <4.50)

$$$$
>  <COMPOUND>
O=C(NC1(c2ccccc2)CC1)c1cc2cc(O)ccc2[nH]1

>  <TDO cellular assay (A172) pIC50>
− (− = pIC50 <4.50)

$$$$
>  <COMPOUND>
Cn1cc(C2(NC(=O)c3cc4ccc(C(F)F)cc4[nH]3)CC2)cn1

>  <TDO cellular assay (A172) pIC50>
− (− = pIC50 <4.50)

$$$$
>  <COMPOUND>
O=C(NCc1cccs1)c1cc2ccccc2[nH]1

>  <TDO cellular assay (A172) pIC50>
− (− = pIC50 <4.50)

$$$$
>  <COMPOUND>
COc1ccc2[nH]c(C(=O)NC3(c4ccccc4)CC3)cc2c1

>  <TDO cellular assay (A172) pIC50>
− (− = pIC50 <4.50)

$$$$
>  <COMPOUND>
Cc1noc(C(C)NC(=O)c2cc3cc(Cl)ccc3[nH]2)n1 (stereo not shown)

>  <TDO cellular assay (A172) pIC50>
− (− = pIC50 <4.50)

$$$$
>  <COMPOUND>
C[C@H](NC(=O)c1cc2c(F)cccc2[nH]1)c1ccccc1

>  <TDO cellular assay (A172) pIC50>
+ (+ = pIC50 4.50-<5.00)

$$$$
>  <COMPOUND>
CC(C)C(C)NC(=O)c1cc2cc(Cl)ccc2[nH]1 (stereo not shown)

>  <TDO cellular assay (A172) pIC50>
+ (+ = pIC50 4.50-<5.00)

$$$$
>  <COMPOUND>
Cn1cc(C2(NC(=O)c3cc4cc(OC(F)(F)F)ccc4[nH]3)CCC2)cn1

>  <TDO cellular assay (A172) pIC50>
− (− = pIC50 <4.50)

$$$$
>  <COMPOUND>
Cc1cc(C)c2cc(C(=O)NCc3ccc(C)n3C)[nH]c2c1

>  <TDO cellular assay (A172) pIC50>
− (− = pIC50 <4.50)

$$$$
>  <COMPOUND>
CC(=O)N1CCC(C(C)NC(=O)c2cc3cc(Cl)ccc3[nH]2)CC1 (stereo not shown)

>  <TDO cellular assay (A172) pIC50>
− (− = pIC50 <4.50)

$$$$
